Reference source: patent US12559506B2

assayed-system: G2019S LRRK2 (Homo sapiens, UniProt Q5S007, G2019S)
Construct: expressed in transfected cells; host or cells: HEK293 (ATCC CRL-1573), transient transfection, mammalian expression vector with ubiquitin promoter
Sequence (Q5S007 whole entry G2019S): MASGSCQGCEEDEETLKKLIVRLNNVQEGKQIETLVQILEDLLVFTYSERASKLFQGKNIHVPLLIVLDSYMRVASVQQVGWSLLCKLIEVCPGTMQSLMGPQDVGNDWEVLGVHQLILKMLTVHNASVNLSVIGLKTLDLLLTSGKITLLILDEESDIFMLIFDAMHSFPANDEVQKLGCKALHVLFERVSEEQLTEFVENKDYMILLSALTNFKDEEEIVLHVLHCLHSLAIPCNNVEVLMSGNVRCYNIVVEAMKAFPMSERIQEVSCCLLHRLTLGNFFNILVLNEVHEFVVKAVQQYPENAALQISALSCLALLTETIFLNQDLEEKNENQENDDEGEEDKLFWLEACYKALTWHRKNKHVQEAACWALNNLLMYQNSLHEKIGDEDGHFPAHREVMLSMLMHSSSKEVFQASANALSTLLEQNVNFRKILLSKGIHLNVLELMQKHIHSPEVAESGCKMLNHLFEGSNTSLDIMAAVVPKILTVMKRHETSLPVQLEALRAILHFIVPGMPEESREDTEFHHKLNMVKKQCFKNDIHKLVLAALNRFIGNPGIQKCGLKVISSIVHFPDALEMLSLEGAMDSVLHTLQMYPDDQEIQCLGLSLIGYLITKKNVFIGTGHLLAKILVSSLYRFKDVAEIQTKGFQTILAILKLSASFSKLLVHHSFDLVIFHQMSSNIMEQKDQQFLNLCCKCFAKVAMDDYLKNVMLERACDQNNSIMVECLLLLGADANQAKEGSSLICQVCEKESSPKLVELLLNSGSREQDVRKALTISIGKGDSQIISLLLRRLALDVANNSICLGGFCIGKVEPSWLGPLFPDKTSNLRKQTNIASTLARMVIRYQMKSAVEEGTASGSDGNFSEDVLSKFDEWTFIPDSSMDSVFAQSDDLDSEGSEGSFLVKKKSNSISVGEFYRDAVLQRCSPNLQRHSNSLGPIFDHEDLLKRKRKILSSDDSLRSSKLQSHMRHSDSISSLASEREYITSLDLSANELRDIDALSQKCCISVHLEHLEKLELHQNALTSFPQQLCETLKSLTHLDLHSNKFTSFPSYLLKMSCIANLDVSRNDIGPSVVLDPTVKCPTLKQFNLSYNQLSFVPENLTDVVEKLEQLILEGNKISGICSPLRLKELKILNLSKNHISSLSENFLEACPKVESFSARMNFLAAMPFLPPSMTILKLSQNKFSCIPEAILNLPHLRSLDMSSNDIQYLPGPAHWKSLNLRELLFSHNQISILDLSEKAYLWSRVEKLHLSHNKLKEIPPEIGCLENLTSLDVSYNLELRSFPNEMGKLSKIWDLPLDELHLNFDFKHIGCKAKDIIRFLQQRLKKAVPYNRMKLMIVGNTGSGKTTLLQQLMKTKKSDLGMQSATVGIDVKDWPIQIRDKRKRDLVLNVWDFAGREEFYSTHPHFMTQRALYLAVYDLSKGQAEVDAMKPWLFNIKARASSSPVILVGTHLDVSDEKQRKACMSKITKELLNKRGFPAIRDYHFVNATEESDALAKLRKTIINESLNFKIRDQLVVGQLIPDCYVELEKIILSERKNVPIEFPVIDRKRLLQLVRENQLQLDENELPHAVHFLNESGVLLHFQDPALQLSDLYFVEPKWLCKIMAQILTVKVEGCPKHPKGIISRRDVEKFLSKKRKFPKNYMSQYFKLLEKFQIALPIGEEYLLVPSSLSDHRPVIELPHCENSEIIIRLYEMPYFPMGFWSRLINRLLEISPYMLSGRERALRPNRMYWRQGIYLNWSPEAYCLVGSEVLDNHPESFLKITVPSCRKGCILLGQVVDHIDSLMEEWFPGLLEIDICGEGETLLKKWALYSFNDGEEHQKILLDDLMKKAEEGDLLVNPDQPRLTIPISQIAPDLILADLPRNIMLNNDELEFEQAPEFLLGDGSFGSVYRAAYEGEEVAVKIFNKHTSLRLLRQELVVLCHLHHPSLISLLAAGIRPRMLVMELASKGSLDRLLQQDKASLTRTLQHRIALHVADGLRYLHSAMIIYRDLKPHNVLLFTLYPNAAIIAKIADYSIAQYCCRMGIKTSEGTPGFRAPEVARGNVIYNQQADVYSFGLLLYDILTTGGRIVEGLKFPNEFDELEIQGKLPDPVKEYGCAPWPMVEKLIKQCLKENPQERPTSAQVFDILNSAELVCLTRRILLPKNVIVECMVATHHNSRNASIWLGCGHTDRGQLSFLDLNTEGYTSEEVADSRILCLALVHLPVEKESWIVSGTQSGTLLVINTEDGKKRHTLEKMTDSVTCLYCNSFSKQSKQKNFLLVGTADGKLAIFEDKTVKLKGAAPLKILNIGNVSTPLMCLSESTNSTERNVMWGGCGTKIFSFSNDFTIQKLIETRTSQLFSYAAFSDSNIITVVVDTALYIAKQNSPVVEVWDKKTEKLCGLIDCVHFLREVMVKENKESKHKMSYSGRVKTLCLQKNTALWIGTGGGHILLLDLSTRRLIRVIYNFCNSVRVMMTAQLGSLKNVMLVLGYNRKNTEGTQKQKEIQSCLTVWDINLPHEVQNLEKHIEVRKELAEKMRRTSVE
measurement-description: LRRK2 degradation assay, HiBit-tagged G2019S LRRK2 expressed from plasmid in HEK293 cells (Nano-Glo Dual-Luciferase)
Assay type: cell-based
condition-summary: HiBit-tagged G2019S LRRK2, HEK293 cells, 24 hours
observable: DC50

| compound | test-value |
| --- | --- |
| CC1(Oc2ccc3[nH]nc(-c4cc(N5CCN(C[C@H]6CN(CC7CCN(c8ccc9c(c8)C(=O)N(C8CCC(=O)NC8=O)C9=O)CC7)CCO6)CC5)ncn4)c3c2)CC1 (some centres unmarked) | < 10 nM |
| CC1(Oc2ccc3[nH]nc(-c4ccnc(N5CC6(CN(CC7CCN(CC8CCN(c9ccc%10c(c9)C(=O)N(C9CCC(=O)NC9=O)C%10=O)CC8)CC7)C6)C5)c4)c3c2)CC1 (centres unmarked) | 10 to 50 nM |
| CC1(Oc2ccc3n[nH]c(-c4cc(N5CCN(CC6CC7(CCN(CC8CCN(c9ccc%10c(c9)C(=O)N(C9CCC(=O)NC9=O)C%10=O)CC8)CC7)C6)CC5)ncn4)c3c2)CC1 (centres unmarked) | 10 to 50 nM |
| CC1(Oc2ccc3n[nH]c(-c4cc(N5CCN(Cc6ccc(CN7CCN(c8ccc9c(c8)C(=O)N(C8CCC(=O)NC8=O)C9=O)CC7)nn6)CC5)ncn4)c3c2)CC1 (centres unmarked) | < 10 nM |
| C[C@H]1CN(c2cc(-c3[nH]nc4ccc(OC5(C)CC5)cc34)ncn2)CCN1Cc1cn(CC2CCN(c3ccc4c(c3)C(=O)N(C3CCC(=O)NC3=O)C4=O)CC2)nn1 (some centres unmarked) | 10 to 50 nM |

====

assayed-system: wildtype LRRK2 (Homo sapiens)
Construct: expressed in transfected cells; host or cells: HEK293 (ATCC CRL-1573), transient transfection, mammalian expression vector with ubiquitin promoter
measurement-description: LRRK2 degradation assay, HiBit-tagged wildtype LRRK2 expressed from plasmid in HEK293 cells (Nano-Glo Dual-Luciferase)
Assay type: cell-based
condition-summary: HiBit-tagged wildtype LRRK2 in HEK293 cells, 24 hours; read-out: **WT Dmax (%)

| molecule | assayed-system | Dmax |
| --- | --- | --- |
| C[C@H]1CN(c2cc(-c3[nH]nc4ccc(OC5(C)CC5)cc34)ncn2)CCN1CC1CCN(CC2CCN(c3ccc4c(c3)CN(C3CCC(=O)NC3=O)C4=O)CC2)CC1 (stereo partly drawn) | wildtype LRRK2 (Homo sapiens) | 50 to 70% |
| CC1(Oc2ccc3n[nH]c(-c4cc(N5CCN(C(=O)C6CCN(CC7CCN(c8ccc9c(c8)C(=O)N(C8CCC(=O)NC8=O)C9=O)CC7)CC6)CC5)ncn4)c3c2)CC1 (stereo not drawn) | wildtype LRRK2 (Homo sapiens) | 50 to 70% |
| CC1(Oc2ccc3[nH]nc(-c4cc(N5CCO[C@H](CN6CCC(OC7CCN(c8ccc9c(c8)C(=O)N(C8CCC(=O)NC8=O)C9=O)CC7)CC6)C5)ncn4)c3c2)CC1 (stereo partly drawn) | wildtype LRRK2 (Homo sapiens) | 50 to 70% |

====

assayed-system: wildtype LRRK2 (Homo sapiens, UniProt Q5S007)
Construct: expressed in transfected cells; host or cells: HEK293 (ATCC CRL-1573), transient transfection, mammalian expression vector with ubiquitin promoter
Sequence (Q5S007 whole entry): as the sequence (Q5S007 whole entry G2019S) above, with S2019G counted along it
measurement-description: LRRK2 degradation assay, HiBit-tagged wildtype LRRK2 expressed from plasmid in HEK293 cells (Nano-Glo Dual-Luciferase)
Assay type: cell-based
condition-summary: HiBit-tagged wildtype LRRK2 in HEK293 cells, 24 hours; read-out: **WT Dmax (%)
Attribute: Dmax

| molecule | Dmax |
| --- | --- |
| CC1(Oc2ccc3[nH]nc(-c4cc(N5CCN(CC(F)(F)C6CCN(CC7CCN(c8cccc9c8C(=O)N(C8CCC(=O)NC8=O)C9=O)CC7)CC6)CC5)ncn4)c3c2)CC1 (stereo not drawn) | < 50% |
| CC1(Oc2ccc3[nH]nc(-c4cc(N5CCC(CN=S6(=O)CCN(CC7CCN(c8ccc9c(c8)C(=O)N(C8CCC(=O)NC8=O)C9=O)CC7)CC6)CC5)ncn4)c3c2)CC1 (stereo not drawn) | ≥ 70% |
| CC1(Oc2ccc3[nH]nc(-c4cc(N5CCC(CN6CCN(CC7CN(c8ccc9c(c8)C(=O)N(C8CCC(=O)NC8=O)C9=O)C7)CC6)CC5)ncn4)c3c2)CC1 (stereo not drawn) | 50 to 70% |
